# pIC50 values compiled below
Biological target: GCN2 (Homo sapiens)
Assay: Cellular assay of GCN2 activity (phospho-eIF2alpha immunocytochemistry after tryptophanol)
Assay type: cell-based
Design: endogenous in cells; host or cells: U2OS
Details: Human U2OS cells, 2 h compound, 600 μM tryptophanol 30 min
Sequence (Q9P2K8 whole entry): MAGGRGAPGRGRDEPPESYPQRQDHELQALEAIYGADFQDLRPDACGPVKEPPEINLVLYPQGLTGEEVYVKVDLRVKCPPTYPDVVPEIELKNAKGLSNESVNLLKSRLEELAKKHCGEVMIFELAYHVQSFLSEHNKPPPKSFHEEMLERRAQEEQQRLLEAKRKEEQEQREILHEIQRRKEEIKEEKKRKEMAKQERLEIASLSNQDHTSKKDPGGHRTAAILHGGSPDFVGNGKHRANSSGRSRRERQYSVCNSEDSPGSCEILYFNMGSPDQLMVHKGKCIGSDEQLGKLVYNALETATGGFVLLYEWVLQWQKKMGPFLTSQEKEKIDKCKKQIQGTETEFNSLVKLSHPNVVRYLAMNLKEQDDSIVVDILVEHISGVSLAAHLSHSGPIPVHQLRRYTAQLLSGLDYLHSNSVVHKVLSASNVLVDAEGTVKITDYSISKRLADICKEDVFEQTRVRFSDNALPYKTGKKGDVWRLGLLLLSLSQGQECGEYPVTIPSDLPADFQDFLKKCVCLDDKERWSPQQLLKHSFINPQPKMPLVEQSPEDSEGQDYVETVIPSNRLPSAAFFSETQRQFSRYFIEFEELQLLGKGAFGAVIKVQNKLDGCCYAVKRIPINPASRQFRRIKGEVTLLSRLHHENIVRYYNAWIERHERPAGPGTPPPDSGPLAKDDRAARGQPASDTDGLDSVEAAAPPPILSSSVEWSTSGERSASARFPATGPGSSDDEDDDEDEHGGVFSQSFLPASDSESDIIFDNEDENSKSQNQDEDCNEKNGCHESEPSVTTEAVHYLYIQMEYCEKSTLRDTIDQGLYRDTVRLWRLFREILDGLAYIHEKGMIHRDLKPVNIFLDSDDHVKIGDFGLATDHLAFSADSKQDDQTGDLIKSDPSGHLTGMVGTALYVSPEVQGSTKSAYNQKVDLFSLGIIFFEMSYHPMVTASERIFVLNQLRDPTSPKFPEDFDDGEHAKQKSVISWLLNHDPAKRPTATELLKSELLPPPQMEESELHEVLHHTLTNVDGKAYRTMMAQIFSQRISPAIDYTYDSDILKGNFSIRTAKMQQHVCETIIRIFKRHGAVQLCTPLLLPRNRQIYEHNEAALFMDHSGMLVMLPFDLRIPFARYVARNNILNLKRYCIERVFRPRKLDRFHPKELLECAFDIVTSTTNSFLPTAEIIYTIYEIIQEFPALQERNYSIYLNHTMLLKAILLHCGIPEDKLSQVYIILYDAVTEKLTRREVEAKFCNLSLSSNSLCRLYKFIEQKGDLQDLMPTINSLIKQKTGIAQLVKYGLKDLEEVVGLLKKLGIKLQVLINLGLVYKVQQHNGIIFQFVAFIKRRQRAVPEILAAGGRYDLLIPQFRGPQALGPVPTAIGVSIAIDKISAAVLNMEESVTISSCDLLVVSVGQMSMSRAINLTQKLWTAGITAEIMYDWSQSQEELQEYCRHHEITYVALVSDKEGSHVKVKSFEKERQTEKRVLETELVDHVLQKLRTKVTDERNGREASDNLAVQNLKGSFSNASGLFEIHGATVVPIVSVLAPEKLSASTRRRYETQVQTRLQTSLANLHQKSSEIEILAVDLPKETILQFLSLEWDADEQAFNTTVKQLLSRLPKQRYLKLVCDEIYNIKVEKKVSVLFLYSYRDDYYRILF
pIC50: −log10 of the molar value.

Here is how some compounds turned out for pIC50.
{"compound": "NC(=O)[C@@H]1CC[C@@H](Nc2ncc3nnn(-c4ccc(O)cc4)c3n2)C1", "measurement_label": "pIC50", "value_measured": "5.00 to 5.30"}
{"compound": "Cc1nc(CCn2cc(-c3ccc(-n4nnc5cnc(N[C@@H]6CC[C@@H](C(N)=O)C6)nc54)cc3)cn2)no1", "measurement_label": "pIC50", "value_measured": "> 6.00"}
{"compound": "N[C@H]1CC[C@H](Nc2ncc3nnn(-c4ccc(-c5cnn(CCn6cccn6)c5)cc4)c3n2)CC1", "measurement_label": "pIC50", "value_measured": "5.00 to 5.30"}
{"compound": "CCOc1ccc(-n2nnc3cnc(N[C@@H]4CC[C@@H](C(N)=O)C4)nc32)cc1", "measurement_label": "pIC50", "value_measured": "5.30 to 6.00"}
{"compound": "COc1ccc(-n2nnc3cnc(N[C@@H]4CC[C@@H](C(=O)N(C)C)C4)nc32)cc1", "measurement_label": "pIC50", "value_measured": "5.30 to 6.00"}

Give pIC50 for Cn1cc2ccc(-n3nnc4cnc(N[C@@H]5CC[C@@H](C(N)=O)C5)nc43)cc2n1 5.00 to 5.30

Give pIC50 for COCCn1cc(-c2ccc(-n3nnc4cnc(N[C@@H]5CC[C@@H](C(N)=O)C5)nc43)cn2)cn1 5.00 to 5.30

Give pIC50 for O[C@@H]1CC[C@@H](Nc2ncc3nnn(-c4ccc(OC[C@H](O)C(F)(F)F)cc4)c3n2)C1 (stereo in doubt) 5.00 to 5.30

Give pIC50 for COc1ccc(-n2nnc3cnc(N[C@@H]4CC[C@@H](C(N)=O)C4)nc32)cc1F 5.30 to 6.00

Give pIC50 for Cc1ccc2cc(-n3nnc4cnc(N[C@H]5CC[C@H](C(N)=O)C5)nc43)ccc2n1 5.30 to 6.00

Give pIC50 for Cc1ccc2cc(-n3nnc4cnc(N[C@@H]5CC[C@@H](N)C5)nc43)ccc2n1 5.30 to 6.00

Give pIC50 for COCCOc1ccc(-n2nnc3cnc(N[C@@H]4CC[C@@H](C#N)C4)nc32)cc1 5.30 to 6.00

Give pIC50 for COCCn1cc(-c2ccc(-n3nnc4cnc(N[C@@H]5CC[C@@H](C(=O)NCC6CCN(C)CC6)C5)nc43)cc2)cn1 5.30 to 6.00

Give pIC50 for CN1CCN(CCC(=O)N2CC[C@@H](Nc3ncc4nnn(-c5ccc(-c6cnn(C)c6)cc5)c4n3)C2)CC1 5.00 to 5.30

====

Molecular target: GCN2 (Homo sapiens)
Assay: GCN2 enzyme assay (TR-FRET Lanthascreen, GFP-eIF2alpha phosphorylation)
Format: biochemical
Details: 10 μM ATP, 80 nM GFP-eIF2a, 30 nM GCN2
Sequence (Q9P2K8 whole entry, species assumed): as the sequence (Q9P2K8 whole entry) above
measurement_label: IC50

{"compound": "COc1ccc(-n2nnc3cnc(N[C@H]4CC[C@H](NC(=O)OC(C)(C)C)C4)nc32)cc1 (racemic)", "IC50": "5 to 10 µM"}
{"compound": "NC(=O)[C@@H]1CC[C@@H](Nc2ncc3nnn(-c4ccc(O)cc4)c3n2)C1", "IC50": "< 1 µM"}
{"compound": "CCOc1ccc(-n2nnc3cnc(NCCc4cn[nH]c4)nc32)cc1", "IC50": "< 1 µM"}
{"compound": "NC(=O)[C@@H]1CC[C@@H](Nc2ncc3nnn(-c4ccc(-c5cnn(CCO)c5)cn4)c3n2)C1", "IC50": "< 1 µM"}
{"compound": "COc1ccc(-n2nnc3cnc(NC4CC(C)(C)N(C)C(C)(C)C4)nc32)cc1", "IC50": "5 to 10 µM"}
{"compound": "COc1ccc(-n2nnc3cnc(NC4CCN(CCN5CCCC5)CC4)nc32)cc1", "IC50": "< 1 µM"}

Please examine the following record next.
Give IC50 for COC(=O)[C@H]1CC[C@H](Nc2ncc3nnn(-c4ccc(OC)cc4)c3n2)C1 < 1 µM

====

Target: GCN2 (Homo sapiens, UniProt Q9P2K8)
Experiment: GCN2 enzyme assay (TR-FRET Lanthascreen, GFP-eIF2alpha phosphorylation)
Assay type: biochemical
Conditions: 10 μM ATP, 80 nM GFP-eIF2a, 30 nM GCN2
measurement_label: IC50

{"compound": "COc1ccc(-n2nnc3cnc(N[C@H]4CC[C@H](CNC(=O)OC(C)(C)C)CC4)nc32)cc1 [A33]", "value_measured": "1000 to 5000 nM"}

Give IC50 for COc1ccc(-n2nnc3cnc(N[C@@H]4CC[C@H](CO)C4)nc32)cc1 [A112] < 1000 nM

Give IC50 for COc1ccc(-n2nnc3cnc(N[C@@H]4CC[C@@H](C(=O)NCCN5CCN(C)CC5)C4)nc32)cc1 [A244] < 1000 nM

Give IC50 for CCOCCn1cc(-c2ccc(-n3nnc4cnc(N[C@@H]5CC[C@@H](C(N)=O)C5)nc43)cc2F)cn1 [A223] < 1000 nM

====

Target: GCN2 (Homo sapiens)
Experiment: Cellular assay of GCN2 activity (phospho-eIF2alpha immunocytochemistry after tryptophanol)
Format: cell-based
Set-up: endogenous in cells; host or cells: U2OS
Settings: Human U2OS cells, 2 h compound, 600 μM tryptophanol 30 min
measurement_label: IC50

Here is how some molecules turned out for IC50.
{"molecule": "NC(=O)[C@@H]1CC[C@@H](Nc2ncc3nnn(-c4ccc(OC[C@@H](O)C(F)(F)F)cc4)c3n2)C1", "IC50": "1000 to 5000 nM"}
{"molecule": "COc1ccc(-n2nnc3cnc(NC4CC4)nc32)cc1", "IC50": "< 1000 nM"}
{"molecule": "COCCn1cc(-c2ccc(-n3nnc4cnc(N[C@@H]5CC[C@H](N)C5)nc43)cc2)cn1", "IC50": "1000 to 5000 nM"}

Please examine the following record next.
Answer with IC50 of OCCn1cc(-c2ccc(-n3nnc4cnc(N[C@H]5CC[C@H](O)C5)nc43)cc2)cn1 (relative stereo) measured for GCN2 (Homo sapiens). 1000 to 5000 nM

====

Molecular target: GCN2 (Homo sapiens, UniProt Q9P2K8)
Assay: Cellular assay of GCN2 activity (phospho-eIF2alpha immunocytochemistry after tryptophanol)
Type: cell-based
Set-up: endogenous in cells; host or cells: U2OS
Conditions: Human U2OS cells, 2 h compound, 600 μM tryptophanol 30 min
measurement_label: IC50

Give IC50 for OCCn1cc(-c2ccc(-n3nnc4cnc(N[C@@H]5CC[C@@H](O)C5)nc43)cc2)cn1 1 to 5 µM

====

Target: GCN2 (Homo sapiens)
Assay: GCN2 enzyme assay (TR-FRET Lanthascreen, GFP-eIF2alpha phosphorylation)
Assay type: biochemical
Conditions: 10 μM ATP, 80 nM GFP-eIF2a, 30 nM GCN2
# IC50 values compiled below

{"molecule": "NC(=O)[C@@H]1CC[C@@H](Nc2ncc3nnn(-c4ccc5ncccc5c4)c3n2)C1 [A190]", "value_measured": "< 1000 nM"}

Give IC50 for COc1ccc(-n2nnc3cnc(NC4CCc5[nH]ncc5C4)nc32)cc1 (stereo not shown) [A23] < 1000 nM

Give IC50 for COc1ccc(-n2nnc3cnc(N[C@@H]4CC[C@@H](C(N)=O)C4)nc32)nc1 [A175] < 1000 nM

Give IC50 for COc1ccc(-n2nnc3cnc(N[C@@H]4CCN(S(N)(=O)=O)C4)nc32)cc1 [A270] < 1000 nM

Give IC50 for COc1ccc(-n2nnc3cnc(N[C@@H]4CC[C@@H](C(=O)N5CCN(C)CC5)C4)nc32)cc1 [A241] < 1000 nM

Give IC50 for CCOCCn1cc(-c2ccc(-n3nnc4cnc(N[C@@H]5CC[C@@H](O)C5)nc43)cc2)cn1 [A227] < 1000 nM

Give IC50 for Cc1ccc2cc(-n3nnc4cnc(N[C@@H]5CC[C@@H](C(=O)NCCO)C5)nc43)ccc2n1 [A245] < 1000 nM

Give IC50 for CN1CCN(CCNC(=O)[C@H]2CC[C@@H](Nc3ncc4nnn(-c5ccc6ncccc6c5)c4n3)C2)CC1 [A242] < 1000 nM

Give IC50 for N[C@H]1CC[C@H](Nc2ncc3nnn(-c4ccc(F)cc4)c3n2)CC1 [A75] < 1000 nM

Give IC50 for CN(C)CCC(=O)N1CC[C@@H](Nc2ncc3nnn(-c4ccc(-c5cnn(C)c5)cc4)c3n2)C1 [A130] < 1000 nM

Give IC50 for COc1ccc(-n2nnc3cnc(N[C@@H]4CC[C@H](C(=O)O)C4)nc32)cc1 [A79] < 1000 nM

Give IC50 for COCCn1cc(-c2ccc(-n3nnc4cnc(N[C@@H]5CC[C@@H](O)C5)nc43)cc2)cn1 [A212] < 1000 nM

Give IC50 for Cc1ccc2cc(-n3nnc4cnc(N[C@@H]5CC[C@@H](N)C5)nc43)ccc2n1 [A124] < 1000 nM

Give IC50 for COc1ccc(-n2nnc3cnc(N[C@H]4CC[C@@H](O)CC4)nc32)cc1 [A26] < 1000 nM

Give IC50 for COc1ccc(-n2nnc3cnc(NC4CN(C(=O)CN(C)C)C4)nc32)cc1 [A62] 1000 to 5000 nM

Give IC50 for Cc1ncc2cc(-n3nnc4cnc(N[C@@H]5CC[C@@H](O)C5)nc43)ccc2n1 (relative stereo) [A209] < 1000 nM

Give IC50 for COc1ccc(-n2nnc3cnc(N[C@@H]4CC[C@@H](C(N)=O)C4)nc32)cc1 [A140] < 1000 nM

Give IC50 for N#CCCn1cc(-c2ccc(-n3nnc4cnc(N[C@@H]5CC[C@@H](O)C5)nc43)cc2)cn1 (relative stereo) [A214] < 1000 nM

Give IC50 for COc1ccc(-n2nnc3cnc(NC4CCCC4)nc32)cc1 [A12] < 1000 nM
